# ASSAY_INFO: yeast display, Sf9 membrane polyspecificity reagent, FACS + sequencing; frameworks hold sequencing errors
ASSAY_READOUT: polyreactivity (PSR sort gate)

# SEQUENCE_TEXT, polyreactivity (PSR sort gate)
data = [
    ("QVQLVESGGGLVQAGGSLRLSCAASGFTFYVYTMGWYRQAPGKERELVASISGGRTYYADSVKGRFTISRDNAKNTVYLQMNSLKPEDTAVYYCAAVPYPSYYDTRYDYWGPGTQVTVSS", "low polyreactivity"),
    ("QVQLVESGGGLVQAGGSLRLSCAASGRTLKLNAMGWYRQAPGKERELVAAISWRGGSTYYADSVKGRFTISRDNAKNTVYLQMNSLKPEDTAVYYCAAEATAGFWSYGTYDYWGQGTQVTVSS", "high polyreactivity"),
    ("QVQLVESGGGLVQAGGRLRLSCAASGSIFHYNAMGWYRQAPGKESELVAAITTSGGSTYYADSVKGRFTISLDNAKNSVYLQMNSLKPEDTAVYYCNVVTRYYTMEYWGQGTQVTVSS", "high polyreactivity"),
    ("QVQLVESGGGLVQAGGSLRLSCAASGFTFWQYAMGWNRQAPGKERELVAAITWDVGSTYYSDSVKGRFTISRDNAKNTVYLQLNSLKPEDTAVYYCAKLIGGTYYEDDYWGQGSQVTVSS", "low polyreactivity"),
    ("QVHLVESGGGLVQAGGSLRLSCAASGFIFNVYAMGWYRQAPGKERELVAAISFSGTSTYYADSVKGRFTISRDNAKNTVYLQMNSLKPEDTAVYYCAARYWSRDQWPRSLYYWGQGTQVTVSS", "high polyreactivity"),
    ("QVQLVESGGGLVQAGGSLRLIFAASGIIFGRYPMGWYRPAPGKERELVAAITSGGSTSYADSVKGRFTISRDNAKNTVYLQMNSLKPEDTAVYYCAVVFVWGWPGYYWGQGTQVTVSS", "high polyreactivity"),
    ("QVQLVESGGGLVQAGGSLRLSCAASGSTFRVNAMGWYRQAPGKERELVAAIRSSGGTTYYADSVQGRFTISRDNAKNTVYLQMNSLKPEDTAVYYCAAEGYRSWRGLRSRYYYWGQGTQVTVSS", "high polyreactivity"),
    ("QVQLVESGGGLVQAGGSLRLSCAASGLIFSWYDMGWYRQAPGIERELVAAITTDGDDTYYADSVKGRFTISRDNAKNTVYLQLNSLKPEDTAVYYCAADSELAIRYPDRDYDSWGHGTQVTVSS", "low polyreactivity"),
    ("QVQLVESGVGLVQAGGSLRLSCAASGGIFSTYTMGWYIQAPGKERELVAAITTGNSTYYADSVKGRFTISRDNAKNTVYLQMNSLKPEDTAVYYCAAFAASRDYYRRLIHDGYDYWGQGTQVTVSS", "low polyreactivity"),
    ("QVQLVESGGVLVQAGGSLRLSCAASGFIFAKYAMGWYRQAPGKERELVAAINGRGTSTYYADSVKGRFTISRDNAKNTVYLQMNSLKPEDTAVYYCAARLRSGYHGQYDREDYWGQGTQVTVSS", "high polyreactivity"),
]

For each of the sequences below, state polyreactivity (PSR sort gate).
1. QVQLVDSGRGLVQAGGSLRLSCAASGSTFRWNAMGWYRQAPGKERELVAAIDNSGTSTYYADSVKGRFTISRDNAKNTVYLQMNSLKPDDTAVYYCNVRISNTAYRYPTFDYWGQGTQVTVSS
2. QVQLVESGGGLVQAGGSLRLSCAASGRTFFTYAMGWYRQAPGKERELVAAITGSGGSTSYADSVKGRFTISRDNAKNTVYLQMNSLKPEDTAVYYCAADWQELEYDYWGQGTQVNVSS
3. QVQLVESGGGLVQAGGSLRLSCAASGSILGHYAMGWYRQAPGKERELVAAISSSGGSTYYADSVKGRFTISRDNAKNTVYLQMNSLKPEDTAVYYCAADRGRPFPRGTGYYYWGQGTQVTVSS

// result
["low polyreactivity", "low polyreactivity", "high polyreactivity"]

# batch: return polyreactivity (PSR sort gate) for each of the 2 sequences below
1. QVQLVESGGGLVQAGGSLRLICAASGYTFSFYAMGWYIQAPGKERELVAAISRSGGSTYYADSVKGRFTISRDNAKNTVYLQMNSLKPEYTAVYYCAARWPGAYHEYGYWGQGTQVTVSS
2. QVQLVESGGGLVQAGGSLRLSCAASGSIFPDNAMGRYRQAAGKVRELVAAIDKGTGSTNYADSVKGRFTISRDNAKNSVYLQINSVKPEDTAGYYCDKGWLSPRGGAWYDDYWGQGTEVTVSS

// result
["high polyreactivity", "low polyreactivity"]

Please state, for each entry, its recorded polyreactivity (PSR sort gate).
1. QVQLVESGGGLVQAGGSLRLSCAASGITFGSNAMGWYRQAPGKERELVAAIRYSTGSTYYADSVKGRFTISRDNAKNTVYLQMNRLKPEDTAVYYCAKGKNRYTWYGMGYWGQGTQVTVSS
2. QVQLVESGGGLVQAGGSLRLSCAASGSTFGRYAMGWYRQAPGKERELVAAITSDTGNTNYADSVKGRFTISRDNAKNTVYLQMNSLKPEDTAVYYCAAATFWVLWGHVIGNYDSWGQGTQVTVSS
3. QVQLVESGGGLVQAGGSLRLSCASSGSTFARNAMGWYRQAPGKERELVAAISWRGGSTYYADSVKGRFTISRDNAKNTVYLQKNSLKPEDTAVYYCAADGAYWRGTGYEYWGQGTQVTVSS
4. QDQLVESVGGLVQAGGSLRLSCAASASTFGSNAMGWYRQAPGKDREFVAAISRRGGSTYYADSVKGRFTFSRDNAKNTVYLQMNSLKPEDTAVYYCAADYISLREEHYWGHGTQVTVSS
5. QVQLVESGGGLVQAGGSLRLSCAASGSIFGTNAMGWYIQAPGKEREFVATISSRTGSTYYADSVKGRFTFSRDNAKNTVYLQMNSLKPEDTAVYYCAAVRWYGKYDYWGQGTQVTVSS

// result
high polyreactivity
low polyreactivity
high polyreactivity
high polyreactivity
low polyreactivity

// query Would you mind telling me what polyreactivity (PSR sort gate) value was observed for QVHLVESGGGLVQAGGSLRLSCAASGRTFSGYAMGWYRQAPGKERELVAAITSSGSSTYYADSVKGRFTISRDNAKNTVYLQMNSLKPEDTAVYYCAATPQAHSERYYYQRKYDYWGQGTQVTVSS ?
// result low polyreactivity

src = the nanobody polyreactivity screen of Harvey et al. (2022)
